Test system: HCV genotype 1b
experimental_details: HCV 1b replicon luciferase assay
Format: cell-based
test_parameters: Hepatitis C virus, Huh-7, 48 h, Table 1; Huh7 HCV 1b replicon, luciferase reporter, 48 hours; read-out: 1b EC50
Method: A suitable 1b HCV RNA replicon assay uses the Huh7 cell line which contains an HCV 1b RNA replicon with a stable luciferase (LUC) reporter. This construct contains modifications that make the cell line more robust and provides stable LUC expression for antiviral screening. […] Remove the 96-well assay plate from the 37° C./5% CO2 incubator, examine the cell morphology under an inverted microscope. […] Measure the luminescence with Envision (Perkin Elmer) with an integration time of 2 seconds. […]
Below, each of the compounds is paired with its reported pEC50 value.
Convention used: pEC50 is expressed as -log10 of the molar concentration.

CCN1CCC(NC(=O)c2nn(C)c3nc(N4CCCCCCC4)ccc23)CC1 [compound 1225] | 5.92
O=C(NC1CCNCC1)c1n[nH]c2nc(O)ccc12 [compound 744] | 5.82
Cn1cc(-c2nn(C)c3nc(N4CCCCCC4)ccc23)nc1CC1CCNCC1 [compound 1126] | 5.11
CCC(CC)Oc1ccc2c(C(=O)NC3CCNCC3)n[nH]c2n1 [compound 726] | 5.92
Cn1nc(-c2cnc(C3CCN(CC4CCCCC4)C3)s2)c2ccc(N3CCCCCCC3)nc21 (centres unmarked) [compound 1268] | 6.24
CCC(CC)Oc1ccc2c(NC(=O)c3ccccc3)nn(C)c2n1 [compound 942] | 5.07

Need pEC50 of Cn1nc(C(=O)NC2CCNCC2)c2ccc(Oc3ccccc3)nc21 [compound 955] , thanks.
5.47

Need pEC50 of Cn1nc(C(=O)NC2CCN(Cc3cccc(-c4ccccc4)c3)CC2)c2ccc(OCc3cccc(-c4ccccc4)c3)nc21 [compound 970] , thanks.
5.05

* * *

Below, each of the molecules is paired with its reported CYP (% negative controls) 1A2 value.
test_system: CYP 1A2 (Homo sapiens)
Construct: For human liver microsome solution, a stock solution (20 mg/mL (4×final)) is used; from tissue; host or cells: human liver microsomes
Sequence (P05177 whole entry): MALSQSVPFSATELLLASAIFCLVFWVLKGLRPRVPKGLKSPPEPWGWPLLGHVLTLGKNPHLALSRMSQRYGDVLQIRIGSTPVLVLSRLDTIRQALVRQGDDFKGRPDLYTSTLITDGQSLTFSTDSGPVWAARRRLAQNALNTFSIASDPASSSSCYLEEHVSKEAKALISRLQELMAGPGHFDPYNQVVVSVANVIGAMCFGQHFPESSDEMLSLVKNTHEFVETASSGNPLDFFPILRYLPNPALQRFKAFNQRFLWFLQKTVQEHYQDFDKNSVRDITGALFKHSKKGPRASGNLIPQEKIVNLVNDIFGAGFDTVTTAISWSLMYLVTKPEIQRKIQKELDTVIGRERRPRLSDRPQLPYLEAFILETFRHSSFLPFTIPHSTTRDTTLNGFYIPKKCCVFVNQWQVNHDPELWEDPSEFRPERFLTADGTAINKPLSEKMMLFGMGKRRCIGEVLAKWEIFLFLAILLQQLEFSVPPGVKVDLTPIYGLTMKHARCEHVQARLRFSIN
experimental_details: CYP inhibition testing, CYP 1A2
Format: in vitro ADME
test_parameters: human liver microsomes; >75 = low level of inhibition
Output spec: scalar in % negative controls, unitless text.

CCC(CC)Oc1ccc2c(C(=O)NC3CCNCC3)n[nH]c2n1 [compound 726] | 102
Cn1nc(C(=O)NC2CCNCC2)c2ccc(N3CCCCCC3)nc21.O=C(O)C(F)(F)F.O=C(O)C(F)(F)F [compound 697] | 97
Cn1nc(CCCN2CCCC2)c2ccc(N3CCCCCCC3)nc21 [compound 1171] | 104

Need CYP (% negative controls) 1A2 of Cn1nc(C(=O)NC2CCN(CCN3CCCCC3)CC2)c2ccc(N3CCCCCC3)nc21 [compound 1047] , thanks.
98

* * *

experimental_details: Liver microsome stability, human
Type: in vitro ADME
test_parameters: after 30 min
Below, each of the molecules is paired with its reported human liver microsome (HLM, % parent remaining) value.
Hi, when you answer, please include the unit after the number. Thanks!

Solved cases (5 shown):
CC1CCCCN1CCOCc1nn(C)c2nc(N3CCCCCC3)ccc12 (stereo not shown) | 11 % parent remaining
Cn1nc(C(=O)NC2CCN(CCN3CCCCC3CO)CC2)c2ccc(N3CCCCCC3)nc21 (stereo not shown) | 32 % parent remaining
CCC(CC)Oc1ccc2c(C(=O)NC3CCNCC3)n[nH]c2n1 | 81 % parent remaining
Cn1nc(CCCN2CCCCC2CO)c2ccc(N3CCCCCCC3)nc21 (stereo not shown) | 6 % parent remaining
CCN1CCC(NC(=O)c2nn(C)c3nc(N4CCCCCC4)ccc23)CC1 [EBP1595] | 46 % parent remaining

Need human liver microsome (HLM, % parent remaining) of CC1CCCN1CCCc1nn(C)c2nc(N3CCCCCCC3)ccc12 (stereo not shown) , thanks.
13 % parent remaining

Need human liver microsome (HLM, % parent remaining) of Cn1nc(C(=O)NC2CCN(CCN3CCCC3)CC2)c2ccc(N3CCCCCC3)nc21 [compound 1597] , thanks.
74 % parent remaining

* * *

experimental_details: In vivo rat pharmacokinetic studies
test_parameters: liver, 40 mg/kg; rat, PO 40 mpk, over the period given; read-out: Liver Conc (range)
Text: In vivo rat pharmacokinetic studies are designed to measure bioavailability, tissue distribution and metabolite identification in rats after intravenous (IV) and oral (PO) dosing. A full PK study typically includes two study arms (IV and PO) and takes serial blood samples from multiple animals per compound. […]
parameter_measured: liver concentration range at 12 h

Need liver concentration range at 12 h of Cn1nc(C(=O)NC2CCN(CCN3CCCC3)CC2)c2ccc(N3CCCCCC3)nc21 , thanks.
2 to 18 µM

* * *

test_system: CYP 3A4 (Homo sapiens, UniProt P08684)
Construct: For human liver microsome solution, a stock solution (20 mg/mL (4×final)) is used; from tissue; host or cells: human liver microsomes
Sequence (P08684 whole entry): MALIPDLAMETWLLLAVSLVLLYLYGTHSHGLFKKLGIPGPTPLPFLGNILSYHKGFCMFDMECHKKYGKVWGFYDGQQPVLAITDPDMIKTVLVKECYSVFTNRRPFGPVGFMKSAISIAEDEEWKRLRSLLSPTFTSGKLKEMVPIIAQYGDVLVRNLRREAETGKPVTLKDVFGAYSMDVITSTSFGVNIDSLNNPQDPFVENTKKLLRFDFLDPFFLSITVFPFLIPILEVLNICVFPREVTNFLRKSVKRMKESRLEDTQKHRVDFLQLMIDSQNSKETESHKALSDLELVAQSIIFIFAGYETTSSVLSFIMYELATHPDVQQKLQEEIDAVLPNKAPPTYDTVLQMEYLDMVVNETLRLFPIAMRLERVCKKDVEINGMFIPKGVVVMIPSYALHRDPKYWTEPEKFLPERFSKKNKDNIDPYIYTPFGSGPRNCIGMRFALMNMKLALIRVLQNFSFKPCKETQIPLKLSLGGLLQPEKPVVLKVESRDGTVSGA
experimental_details: CYP inhibition testing, CYP 3A4
Type: in vitro ADME
test_parameters: human liver microsomes; >75 = low level of inhibition
Procedure: Select compounds are tested for CYP inhibition against five different CYP enzymes: CYP 1A2, CYP 2C9, CYP 2C19, CYP 2D6, CYP 3A4. Individual CYP enzymes are incubated with corresponding substrates with no inhibitor (negative control). Individual CYP enzymes are then incubated with corresponding substrates in the presence of test compound. […] Values of 70>v, w, x, y, z>30 indicate moderate level of inhibition of the corresponding enzyme. […]
Below, each of the molecules is paired with its reported CYP (% negative controls) 3A4 value.
Output spec: scalar in % negative controls, unitless text.

Solved cases (3 shown):
Cn1nc(C(=O)NC2CCNCC2)c2ccc(N3CCCCCC3)nc21.O=C(O)C(F)(F)F.O=C(O)C(F)(F)F | 110
Cn1nc(CCCN2CCCC2)c2ccc(N3CCCCCCC3)nc21 | 67
CCC(CC)Oc1ccc2c(C(=O)NC3CCNCC3)n[nH]c2n1 | 60

# evaluate next
Need CYP (% negative controls) 3A4 of Cn1nc(C(=O)NC2CCN(CCN3CCCCC3)CC2)c2ccc(N3CCCCCC3)nc21 , thanks.
113

* * *

experimental_details: Liver microsome stability, rat
Type: in vitro ADME, Sprague Dawley rat
test_parameters: after 60 min
Below, each of the molecules is paired with its reported rat liver microsome (RLM), % parent remaining value.
Output spec: scalar in % parent remaining, unitless text.

Cn1nc(C(=O)NC2CCN(CC(F)F)CC2)c2ccc(N3CCCCCC3)nc21 | 0.5

# evaluate next
Need rat liver microsome (RLM), % parent remaining of CCC(CC)Oc1ccc2c(C(=O)NC3CCNCC3)n[nH]c2n1 , thanks.
53

* * *

Below, each of the compounds is paired with its reported pEC50 value.
Tested on: HCV genotype 1b
experimental_details: HCV 1b replicon luciferase assay
Format: cell-based
test_parameters: Hepatitis C virus, Huh-7, 48 h, Table 1; Huh7 HCV 1b replicon, luciferase reporter, 48 hours; read-out: 1b EC50
Experimental: A suitable 1b HCV RNA replicon assay uses the Huh7 cell line which contains an HCV 1b RNA replicon with a stable luciferase (LUC) reporter. This construct contains modifications that make the cell line more robust and provides stable LUC expression for antiviral screening. […] Remove the 96-well assay plate from the 37° C./5% CO2 incubator, examine the cell morphology under an inverted microscope. […] Measure the luminescence with Envision (Perkin Elmer) with an integration time of 2 seconds. […]
Convention used: pEC50 is expressed as -log10 of the molar concentration.

Give the reported pEC50 for O=C(/C=C/c1cccnc1)Nc1nn(Cc2ccc(Cl)cc2)c2nc(N3CCCCCC3)ccc12 [compound 747] (system: HCV genotype 1b).
5.05

Give the reported pEC50 for Cn1nc(C(=O)NC2CCN(CCN3CCCCC3)CC2)c2ccc(NC3CCCCCCC3)nc21 [compound 1468] (system: HCV genotype 1b).
6.48

Give the reported pEC50 for Nc1nn(Cc2ccc(Cl)cc2)c2nc(N3CCCCCC3)ccc12 [compound 759] (system: HCV genotype 1b).
5.07

Give the reported pEC50 for Cn1nc(-c2cnc(C(=O)NCC3CCNCC3)s2)c2ccc(N3CCCCCC3)nc21 [compound 1097] (system: HCV genotype 1b).
5.47

* * *

System: HCV genotype 1b
experimental_details: HCV 1b replicon luciferase assay
Format: cell-based
test_parameters: Hepatitis C virus, Huh-7, 48 h, Table 1; Huh7 HCV 1b replicon, luciferase reporter, 48 hours; read-out: 1b EC50
parameter_measured: EC50 (nM)
Output spec: scalar in nM, unitless text.

Cn1nc(C(=O)NC2CCN(CCN3CCCC3)CC2)c2ccc(N3CCCCCC3)nc21 | 770
Cn1nc(C(=O)NC2CCN(CCN3CC[C@@H](O)C3)CC2)c2ccc(N3CCCCCC3)nc21 | 3400
CC1CCCCC1Oc1ccc2c(C(=O)NC3CCNCC3)nn(C)c2n1 (centres unmarked) | 2800
Cn1nc(C(=O)NC2CCN(Cc3ccncc3)CC2)c2ccc(N3CCCCCC3)nc21 | 1200
CC1CCC(Oc2ccc3c(C(=O)NC4CCNCC4)nn(C)c3n2)C(C(C)C)C1 (centres unmarked) | 1700

Give the reported EC50 for Cn1nc(-c2cnc(C(=O)NC3CCNCC3)s2)c2ccc(N3CCCCCC3)nc21 (system: HCV genotype 1b).
2900

Give the reported EC50 for Cn1nc(C(=O)NC2CCNCC2)c2ccc(N3CCCCCCC3)nc21 (system: HCV genotype 1b).
798

Give the reported EC50 for Cn1nc(-c2nnc(C3CCCN(CC4CCCCC4)C3)o2)c2ccc(N3CCCCCCC3)nc21 (centres unmarked) (system: HCV genotype 1b).
940

Give the reported EC50 for Cn1nc(CCCN2CCCC2)c2ccc(N3CCCCCCC3)nc21 (system: HCV genotype 1b).
1600

Give the reported EC50 for O=C(NC1CCNCC1)c1nn(S(=O)(=O)C2CCCCC2)c2nc(N3CCCCCC3)ccc12 (system: HCV genotype 1b).
5400
